# Experiment Notes: Balb/C mouse pharmacokinetics (plasma, colon, ileum)
# Assay type: in vivo
# Conditions Used: male, po, Balb/C mice, p.o. 5 mg/kg, ileum, read-out: Blood concentration Cmax
Each record is given Met if its reported Cmax is strictly below 20000 ng/mL. Records at or above 20000 ng/mL are given Not met.

1) Cc1cc(Nc2nc(N[C@@H]3C[C@H]4CC[C@@H](C3)N4C(=O)CN3CCOCC3)nc3sccc23)n[nH]1 :: Met
2) Cc1cc(Nc2nc(N[C@@H]3C[C@H]4CCC[C@@H](C3)N4C(=O)c3ccccn3)nc3sccc23)n[nH]1 :: Met
3) Cc1cnc(Nc2cc3ncccc3c(N[C@@H]3C[C@H]4CC[C@@H](C3)N4CCC#N)n2)s1 :: Not met
4) Cc1cc(Nc2nc(N[C@@H]3C[C@H]4CC[C@@H](C3)N4CCC#N)nc3cc(Cl)ccc23)n[nH]1 :: Met
5) COc1ccc2c(Nc3cc(C)[nH]n3)nc(N[C@@H]3C[C@H]4CC[C@@H](C3)N4CCC#N)nc2c1 :: Not met
6) Cc1cc(Nc2nc(N[C@@H]3C[C@H]4CCC[C@@H](C3)N4S(=O)(=O)c3ccccn3)nc3sccc23)n[nH]1 :: Met
7) Cc1cc(Nc2nc(N[C@@H]3C[C@H]4CC[C@@H](C3)N4CCC#N)nc3cc(N4CCOCC4)ccc23)n[nH]1 :: Not met
8) Cc1cc(Nc2nc(N[C@@H]3C[C@H]4CC[C@@H](C3)N4CCC#N)nc3sc(C)cc23)n[nH]1 :: Met

###

# Experiment Notes: Balb/C mouse pharmacokinetics (plasma, colon, ileum)
# Type: in vivo
# Conditions Used: male, plasma, po, Balb/C mice, p.o. 5 mg/kg, blood, read-out: Mean detention time MRT
Overview of reported MRT across a group of molecules:
Property Label: MRT (h)

1. Cc1cc(Nc2nc(N[C@@H]3C[C@H]4CC[C@@H](C3)N4CCC#N)nc3cc(Cl)ccc23)n[nH]1 :: 3.05
2. Cc1cc(Nc2nc(N[C@@H]3C[C@H]4CC[C@@H](C3)N4CCC#N)nc3cc(-c4cccnc4)ccc23)n[nH]1 :: 1.66
3. Cc1cc(Nc2nc(N[C@@H]3C[C@H]4CC[C@@H](C3)N4CCC#N)nc3ccsc23)n[nH]1 :: 2.58
4. Cc1cc(Nc2nc(N(C)[C@@H]3C[C@H]4CCC[C@@H](C3)N4C(=O)CN3CCN(C)CC3)nc3sccc23)n[nH]1 :: 2.18

###

Overview of reported pIC50 across a group of compounds:
# Tgt: JAK1 (Homo sapiens, UniProt P23458)
# Sequence (P23458 whole entry): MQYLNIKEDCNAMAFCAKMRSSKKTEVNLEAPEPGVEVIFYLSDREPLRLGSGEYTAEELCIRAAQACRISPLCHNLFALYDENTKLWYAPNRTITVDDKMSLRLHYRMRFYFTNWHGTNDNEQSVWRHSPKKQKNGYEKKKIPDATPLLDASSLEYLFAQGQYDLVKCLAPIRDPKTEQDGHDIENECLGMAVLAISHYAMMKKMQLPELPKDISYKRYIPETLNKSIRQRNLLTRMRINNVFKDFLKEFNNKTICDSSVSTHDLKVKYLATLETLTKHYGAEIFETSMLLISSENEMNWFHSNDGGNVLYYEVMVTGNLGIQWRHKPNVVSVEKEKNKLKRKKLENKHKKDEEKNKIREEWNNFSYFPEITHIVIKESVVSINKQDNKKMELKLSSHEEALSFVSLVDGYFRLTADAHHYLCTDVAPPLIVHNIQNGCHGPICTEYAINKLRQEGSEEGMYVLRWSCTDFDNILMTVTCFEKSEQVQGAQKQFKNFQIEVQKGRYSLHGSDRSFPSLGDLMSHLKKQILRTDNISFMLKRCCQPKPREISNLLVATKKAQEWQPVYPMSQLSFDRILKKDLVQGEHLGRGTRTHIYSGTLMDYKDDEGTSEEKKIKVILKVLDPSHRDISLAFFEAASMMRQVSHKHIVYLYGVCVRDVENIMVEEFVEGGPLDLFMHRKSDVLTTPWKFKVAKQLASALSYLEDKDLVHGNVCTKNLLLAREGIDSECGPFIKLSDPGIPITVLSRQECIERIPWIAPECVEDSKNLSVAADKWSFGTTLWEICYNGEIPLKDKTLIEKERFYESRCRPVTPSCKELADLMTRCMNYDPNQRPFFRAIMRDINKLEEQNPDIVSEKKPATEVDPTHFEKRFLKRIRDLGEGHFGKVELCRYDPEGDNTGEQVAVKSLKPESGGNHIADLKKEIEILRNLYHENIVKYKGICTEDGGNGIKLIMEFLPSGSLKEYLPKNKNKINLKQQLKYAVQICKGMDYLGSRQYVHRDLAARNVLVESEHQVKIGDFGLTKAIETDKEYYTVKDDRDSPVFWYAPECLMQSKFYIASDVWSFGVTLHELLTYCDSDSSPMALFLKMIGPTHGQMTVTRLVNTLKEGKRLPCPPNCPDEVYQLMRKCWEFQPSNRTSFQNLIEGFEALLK
pIC50: −log10 of the molar value.
Property Label: pIC50

1. COc1ccc2c(Nc3cc(C)[nH]n3)nc(N(C)[C@@H]3C[C@H]4CC[C@@H](C3)N4S(=O)(=O)N3CC(C#N)C3)nc2c1 :: 9.57
2. Cc1cc(Nc2nc(NC3CCN(S(=O)(=O)N4CC(C#N)C4)CC3)nc3sccc23)n[nH]1 :: 8.72
3. CN(c1nc(Nc2cc(CO)[nH]n2)c2ccc(Cl)cc2n1)[C@@H]1C[C@H]2CC[C@@H](C1)N2CCC#N :: 8.06
4. Cc1cc(Nc2nc(N[C@@H]3C[C@H]4CC[C@@H](C3)N4S(=O)(=O)N3CC(C#N)C3)nc3sccc23)n[nH]1 :: 10.15
5. Cc1cc(Nc2nc(N[C@@H]3C[C@H]4CC[C@@H](C3)N4CCC#N)nc3cc(-c4ccncc4)ccc23)n[nH]1 :: 9.46
6. Cc1cc(Nc2nc(N[C@@H]3C[C@H]4CC[C@@H](C3)N4C(=O)CN(C)C)nc3sccc23)n[nH]1 :: 9.28
7. Cc1cc(Nc2nc(N[C@@H]3C[C@H]4CCC[C@@H](C3)N4S(=O)(=O)c3ccccn3)nc3sccc23)n[nH]1 :: 9.89
8. Cc1cc(Nc2nc(N[C@@H]3C[C@H]4CCC[C@@H](C3)N4C(=O)[C@H]3COCCN3)nc3sccc23)n[nH]1 :: 10.40
9. Cc1cc(Nc2nc(N[C@@H]3C[C@H]4CCC[C@@H](C3)N4C(=O)CN(C)C)nc3sccc23)n[nH]1 :: 9.68
10. Cc1cc(Nc2nc(N(C)[C@@H]3C[C@H]4CC[C@@H](C3)N4S(=O)(=O)N3CC(C#N)C3)nc3sccc23)n[nH]1 :: 9.82
11. Cc1cc2nc(N[C@@H]3C[C@H]4CCC[C@@H](C3)N4CCC#N)nc(Nc3cc(CO)[nH]n3)c2s1 :: 9.19
12. Cc1cc(Nc2nc(N[C@@H]3C[C@H]4CC[C@@H](C3)N4CCC#N)nc3[nH]ccc23)n[nH]1 :: 9.96
13. CCc1cc(Nc2cc3ncccc3c(N[C@@H]3C[C@H]4CC[C@@H](C3)N4CCC#N)n2)n[nH]1 :: 9.52
14. Cc1cc(Nc2nc(N[C@@H]3C[C@H]4CC[C@@H](C3)N4CCC#N)nc3cc(Br)ccc23)n[nH]1 :: 9.18

###

Overview of reported IC50 across a group of compounds:
# Tgt: UniProtKB P29597
# Sequence (P29597 whole entry): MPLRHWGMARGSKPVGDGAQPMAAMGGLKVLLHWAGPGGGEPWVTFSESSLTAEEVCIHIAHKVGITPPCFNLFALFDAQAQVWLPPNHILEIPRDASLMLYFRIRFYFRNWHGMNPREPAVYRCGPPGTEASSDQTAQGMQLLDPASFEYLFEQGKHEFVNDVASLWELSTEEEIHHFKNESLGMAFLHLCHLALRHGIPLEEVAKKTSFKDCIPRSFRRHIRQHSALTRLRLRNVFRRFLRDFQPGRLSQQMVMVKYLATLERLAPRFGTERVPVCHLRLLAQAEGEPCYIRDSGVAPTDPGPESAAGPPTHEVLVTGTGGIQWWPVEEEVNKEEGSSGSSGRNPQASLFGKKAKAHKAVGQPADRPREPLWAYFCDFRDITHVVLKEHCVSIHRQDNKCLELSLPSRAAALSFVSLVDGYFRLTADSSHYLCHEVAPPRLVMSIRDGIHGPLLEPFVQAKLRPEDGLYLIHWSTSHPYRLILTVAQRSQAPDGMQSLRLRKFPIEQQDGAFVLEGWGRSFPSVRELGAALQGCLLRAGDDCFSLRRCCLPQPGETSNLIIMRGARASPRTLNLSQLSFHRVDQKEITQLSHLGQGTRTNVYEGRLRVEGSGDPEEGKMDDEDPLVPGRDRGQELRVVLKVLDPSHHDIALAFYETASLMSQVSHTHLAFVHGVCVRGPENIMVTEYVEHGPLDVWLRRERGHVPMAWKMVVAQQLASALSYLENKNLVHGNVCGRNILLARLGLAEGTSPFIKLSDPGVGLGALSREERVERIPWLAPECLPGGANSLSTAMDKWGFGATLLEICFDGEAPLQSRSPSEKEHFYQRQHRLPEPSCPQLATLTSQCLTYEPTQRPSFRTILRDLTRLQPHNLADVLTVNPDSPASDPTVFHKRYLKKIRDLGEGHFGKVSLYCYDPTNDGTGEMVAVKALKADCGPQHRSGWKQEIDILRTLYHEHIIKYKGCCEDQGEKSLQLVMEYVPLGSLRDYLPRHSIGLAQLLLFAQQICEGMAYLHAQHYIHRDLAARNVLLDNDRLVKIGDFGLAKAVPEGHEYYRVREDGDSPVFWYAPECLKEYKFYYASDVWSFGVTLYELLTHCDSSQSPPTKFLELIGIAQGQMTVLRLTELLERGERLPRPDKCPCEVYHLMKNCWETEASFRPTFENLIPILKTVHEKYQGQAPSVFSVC
# Experiment Notes: JAK kinase activity inhibition, TR-FRET (TYK2)
# Format: biochemical
# Conditions Used: TR-FRET kinase assay
Property Label: IC50 (nM)

1) Cc1cnc(Nc2cc3ncccc3c(N[C@@H]3C[C@H]4CC[C@@H](C3)N4CCC#N)n2)s1 :: 0.55
2) Cc1cc(Nc2nc(N[C@@H]3C[C@H]4CC[C@@H](C3)N4CCC#N)nc3cccnc23)n[nH]1 :: 1.88
3) Cc1cc(Nc2nc(N[C@@H]3C[C@H]4CC[C@@H](C3)N4S(=O)(=O)c3cccnc3)nc3sccc23)n[nH]1 :: 1

###

# Experiment Notes: Balb/C mouse pharmacokinetics (plasma, colon, ileum)
# Type: in vivo
# Conditions Used: male, po, Balb/C mice, p.o. 5 mg/kg, ileum, read-out: Half life period t1/2 (converted)
Each record is given label 1 if its reported half-life is strictly below 1 h. Records at or above 1 h are given label 0.

1. Cc1cc(Nc2nc(N[C@@H]3C[C@H]4CCC[C@@H](C3)N4S(=O)(=O)N3CC(C#N)C3)nc3sccc23)n[nH]1 :: label 1
2. Cc1cc(Nc2nc(N[C@@H]3C[C@H]4CC[C@@H](C3)N4CCC#N)nc3cc(N4CCOCC4)ccc23)n[nH]1 :: label 0
3. Cc1cc(Nc2nc(N[C@@H]3C[C@H]4CC[C@@H](C3)N4CCC#N)nc3ccsc23)n[nH]1 :: label 0
4. Cc1cc(Nc2nc(N[C@@H]3C[C@H]4CC[C@@H](C3)N4CCC#N)nc3cc(Br)ccc23)n[nH]1 :: label 0
5. Cc1cc(Nc2nc(N[C@@H]3C[C@H]4CCC[C@@H](C3)N4C(=O)CN3CCOCC3)nc3sccc23)n[nH]1 :: label 0
6. Cc1cc(Nc2nc(N[C@@H]3C[C@H]4CC[C@@H](C3)N4S(=O)(=O)N3CC(C#N)C3)nc3sccc23)n[nH]1 :: label 1
7. Cc1cnc(Nc2cc3ncccc3c(N[C@@H]3C[C@H]4CC[C@@H](C3)N4CCC#N)n2)s1 :: label 0

###

# Experiment Notes: Balb/C mouse pharmacokinetics (plasma, colon, ileum)
# Assay type: in vivo
# Conditions Used: male, po, Balb/C mice, p.o. 5 mg/kg, colon, read-out: Time to peak tmax
Overview of reported Tmax across a group of compounds:
Property Label: Tmax

1) Cc1cc(Nc2nc(N[C@@H]3C[C@H]4CCC[C@@H](C3)N4C(=O)CN3CCOCC3)nc3sccc23)n[nH]1 [Embodiment 246] :: 7 h
2) Cc1cc(Nc2nc(N[C@@H]3C[C@H]4CC[C@@H](C3)N4CCC#N)nc3ccsc23)n[nH]1 [Embodiment 60] :: 5 h
3) Cc1cc(Nc2nc(N[C@@H]3C[C@H]4CC[C@@H](C3)N4CCC#N)nc3cc(N4CCOCC4)ccc23)n[nH]1 [Embodiment 191] :: 5 h
4) Cc1cc(Nc2nc(N(C)[C@@H]3C[C@H]4CCC[C@@H](C3)N4C(=O)CN3CCN(C)CC3)nc3sccc23)n[nH]1 [Embodiment 257] :: 5 h
5) Cc1cc(Nc2nc(NC3CCN(CCC#N)CC3)nc3sccc23)n[nH]1 [Embodiment 301] :: 5 h
6) Cc1cc(Nc2nc(N[C@@H]3C[C@H]4CC[C@@H](C3)N4CCC#N)nc3cc(Br)ccc23)n[nH]1 [Embodiment 170] :: 3 h

###

# Experiment Notes: Balb/C mouse pharmacokinetics (plasma, colon, ileum)
# Assay type: in vivo
# Conditions Used: male, plasma, po, Balb/C mice, p.o. 5 mg/kg, blood, read-out: Half life period t1/2 (converted)
Overview of reported half-life across a group of compounds:
Property Label: half-life (h)

1. Cc1cc(Nc2nc(N[C@@H]3C[C@H]4CC[C@@H](C3)N4CCC#N)nc3sc(C)cc23)n[nH]1 [Embodiment 277] :: 0.96
2. Cc1cc(Nc2nc(N[C@@H]3C[C@@H]4CN(CCC#N)C[C@@H]4C3)nc3ccsc23)n[nH]1 [Embodiment 299] :: 3.76
3. Cc1cc(Nc2nc(N[C@@H]3C[C@H]4CCC[C@@H](C3)N4C(=O)c3ccccn3)nc3sccc23)n[nH]1 [Embodiment 260] :: 1.57
4. Cc1cc(Nc2nc(N(C)[C@@H]3C[C@H]4CCC[C@@H](C3)N4C(=O)CN3CCN(C)CC3)nc3sccc23)n[nH]1 [Embodiment 257] :: 1.22
5. Cc1cc(Nc2nc(N[C@@H]3C[C@H]4CC[C@@H](C3)N4CCC#N)nc3ccsc23)n[nH]1 [Embodiment 60] :: 1.41
